Biological target: T1, Human VEGFA165 (human, UniProt P15692-4 27-191)
T1 construct: treated as the same molecule; also called antigen VEGFA
T1 sequence (P15692 other isoform, or with tags, fused parts or gaps limits assumed): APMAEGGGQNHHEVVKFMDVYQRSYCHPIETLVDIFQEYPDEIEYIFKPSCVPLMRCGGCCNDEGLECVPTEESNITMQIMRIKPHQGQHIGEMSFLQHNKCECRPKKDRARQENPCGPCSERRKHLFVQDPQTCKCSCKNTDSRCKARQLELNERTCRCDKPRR
Experiment: SPR Biacore 8K, VEGFA165 amine-coupled on CM5, nanobody as analyte, 1:1 model
Metric: koff (s⁻¹)

[
  {
    "Binder": "V1-com-78 (VHH, Humanized V1) VHH: EVQLVESGGGLVQPGGSLRLSCAASGRTFSSYTMGWFRQAPGKEREFVVAISKGGYKYDSVSLEARFTISRDNSKNTVYLQMNSLRAEDTAVYYCAATRAYGSSRLRLADTYEYWGQGTLVTVSS",
    "Number": "8.91e-05"
  },
  {
    "Binder": "V1 (VHH, also called candidate antibody V1; antibody V1) VHH: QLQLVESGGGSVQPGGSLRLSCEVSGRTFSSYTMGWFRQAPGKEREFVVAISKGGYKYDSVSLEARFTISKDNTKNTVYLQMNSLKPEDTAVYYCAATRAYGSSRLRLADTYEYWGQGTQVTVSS",
    "Number": 0.000101
  },
  {
    "Binder": "V1-2m (VHH, Humanized V1) VHH: EVQLVESGGGLVQPGGSLRLSCAASGRTFSSYTMGWFRQAPGKEREFVVAISKGGYKYDSVSLEARFTISRDNSKNTVYLQMNSLRPEDTAVYYCAATRAYGSSRLRLADTYEYWGQGTLVTVSS",
    "Number": "8.24e-05"
  },
  {
    "Binder": "V1-com-87 (VHH, Humanized V1) VHH: EVQLVESGGGLVQPGGSLRLSCAASGRTFSSYTMGWFRQAPGKEREFVVAISKGGYKYDSVSLEARFTISRDNSKNTLYLQMNSLRPEDTAVYYCAATRAYGSSRLRLADTYEYWGQGTLVTVSS",
    "Number": "9.08e-05"
  }
]
